Values from patent US20210155689A1

Entries and their measured pKd follow.
target: T1, human LAG-3 ECD (antigen protein of the affinity test) (human, UniProt P18627 23-450)
T1 sequence: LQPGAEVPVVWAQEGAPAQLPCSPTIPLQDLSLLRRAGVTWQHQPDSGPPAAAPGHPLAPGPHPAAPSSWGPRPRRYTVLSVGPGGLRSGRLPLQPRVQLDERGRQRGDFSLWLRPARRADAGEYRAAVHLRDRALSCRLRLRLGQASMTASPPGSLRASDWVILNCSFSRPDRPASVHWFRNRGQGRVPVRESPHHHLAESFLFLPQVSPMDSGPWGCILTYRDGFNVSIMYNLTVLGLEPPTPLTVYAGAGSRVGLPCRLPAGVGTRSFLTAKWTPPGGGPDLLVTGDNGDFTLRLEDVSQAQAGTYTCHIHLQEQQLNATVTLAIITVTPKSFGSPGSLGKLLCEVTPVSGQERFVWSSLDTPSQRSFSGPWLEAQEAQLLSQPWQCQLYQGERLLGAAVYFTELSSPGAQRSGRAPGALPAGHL
assay_comment: SPR, CM5 chip, antibody captured by anti-human Fc IgG, antigen in flow, 1:1 fit
// scale note: pKd = -log10(conc_M); give the bare number

Here's what some known entries look like.
[
  {
    "binder": "556F6B8-3 humanized antibody (antibody, V domains shown) VH: QVQLQESGPGLVKPSETLSLTCTVSGFSLIKYGVHWIRQPPGKGLEWIGVIWRGGITDYNAAFMSRVTISKDTSKSQVSLKLSSVTAADTAVYYCARWDGPLAMDYWGQGTTVTVSS VL: DIQLTQSPSFLSASVGDRVTITCKASQDVGTTVAWYQQKPGKAPKLLIYWASTRHTGVPSRFSGSGSGTEFTLTISSLQPEDFATYYCQQYSSYPYTFGQGTKLEIK",
    "pKd": 8.48
  },
  {
    "binder": "405B8H3-7 humanized antibody (antibody, V domains shown) VH: QVQLVQSGAEVKKPGASVKVSCKASGYTFTDYEMHWVRQAPGQGLEWIGATDPETGNSAYNQKFKGRATMTADKSTSTAYMELSSLRSEDTAVYYCISTGWNDWGQGTTVTVSS VL: DIQMTQSPSSLSASVGDRVTITCKASQDINSYLSWFQQKPGKAPKSLIYRADRLLDGVPSRFSGSGSGQDYTLTISSLQPEDFATYYCLQYDEFPYTFGQGTKLEIK",
    "pKd": 8.48
  },
  {
    "binder": "405B8H3-6 humanized antibody (antibody, V domains shown) VH: QVQLVQSGAEVKKPGASVKVSCKASGYTFTDYEMHWVRQAPGQGLEWMGATDPETGNSAYNQKFKGRVTMTADKSTSTVYMELSSLRSEDTAVYYCISTGWNDWGQGTTVTVSS VL: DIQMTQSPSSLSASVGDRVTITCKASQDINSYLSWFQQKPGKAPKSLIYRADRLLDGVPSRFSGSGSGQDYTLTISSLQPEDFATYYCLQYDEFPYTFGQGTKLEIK",
    "pKd": 8.69
  },
  {
    "binder": "405B8H3 mouse-human chimeric antibody (antibody, V domains shown, also called mAb103-405B8H3) VH: QVQLQQSGAELVRPGASVTLSCKASGYTFTDYEMHWVKQTPVHGLEWIGATDPETGNSAYNQKFKGKAIMTADKSSSTAYMELRSLTSEDSAVYYCISTGWNDWGQGTSLTVSS VL: DIKMTQSPSSMYASLGERVTITCKASQDINSYLSWFQQKPGKSPKTLIYRADRLLDGVPSRFSGSGSGQDYSLTISSLEYGDMGIYYCLQYDEFPYTFGGGTKLEIK",
    "pKd": 8.59
  }
]

Entry 405B8H3-2 humanized antibody (antibody, V domains shown) VH: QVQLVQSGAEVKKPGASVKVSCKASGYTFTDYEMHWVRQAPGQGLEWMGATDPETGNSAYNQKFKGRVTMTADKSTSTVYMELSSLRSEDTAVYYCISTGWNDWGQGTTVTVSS VL: DIQMTQSPSSLSASVGDRVTITCKASQDINSYLSWFQQKPGKAPKSLIYRADRLLDGVPSRFSGSGSGTDFTLTISSLQPEDFATYYCLQYDEFPYTFGQGTKLEIK has what pKd? 8.77
